System: human ovarian adenocarcinoma cellSK-OV-3
Test: In vitro anticancer activity test (MTT cell proliferation assay)
Type: cell-based
Details: SK-OV-3
Observable: IC50 (µM)
The figure you give is taken to be in µM; do not add the unit.

Please report the recorded IC50 for CCN(CC)CCNC(=O)c1c(C)[nH]c(/C=C2\C(=O)Nc3ccc(F)cc32)c1C .
12.2

* * *

Tested on: Hela
Test: In vitro anticancer activity test (MTT cell proliferation assay)
Assay type: cell-based
Details: Homo sapiens, average proliferation inhibition rate at the dosage of 40 µM
Listing of recorded inhibition at 40 µM by entry.

Some entries whose results are on file:
- Compound: "COc1c(-c2ccc(N)c([N+](=O)[O-])c2)c(F)cc2c(=O)c(C(=O)NO)cn(C3CC3)c12 [Example 138]"
  Target Of Assay: "Hela"
  inhibition at 40 µM: "≥ 50%"
- Compound: "CCCCCCCNS(=O)(=O)c1ccc(-c2cc3c(cc2F)c(=O)c(C(=O)O)cn3C2CC2)cc1C(F)(F)F [Example 132]"
  Target Of Assay: "Hela"
  inhibition at 40 µM: "≥ 20%"
- Compound: "CC(C)(C)OC(=O)Nc1ccc(-c2cc3c(cc2F)c(=O)c(C(=O)O)cn3C2CC2)cc1[N+](=O)[O-] [Example 40]"
  Target Of Assay: "Hela"
  inhibition at 40 µM: "≥ 50%"

Please report the recorded inhibition at 40 µM for Nc1cc(-c2c(F)cc3c(=O)c(C(=O)O)cn(C4CC4)c3c2F)ccc1C(=O)NCC(F)(F)F [Example 43] .
≥ 20%

* * *

Test system: human gastric cancer cell MGC-803
Experiment: In vitro anticancer activity test (MTT cell proliferation assay)
Type: cell-based
Observable: IC50

- Compound: "O=C(O)c1cn(C2CC2)c2cc(N3CCNCC3)c(F)cc2c1=O [Ciprofloxacin]"
  Target Of Assay: "human gastric cancer cell MGC-803"
  IC50: "> 100 µM"
- Compound: "CCN(CC)CCNC(=O)c1c(C)[nH]c(/C=C2\\C(=O)Nc3ccc(F)cc32)c1C [Sunitinib]"
  Target Of Assay: "human gastric cancer cell MGC-803"
  IC50: "17.5 µM"

// next entry
Please report the recorded IC50 for O=C(O)c1cn(C2CC2)c2c(Cl)c(-c3ccc(S(=O)(=O)NCCCC(F)(F)F)nc3)c(F)cc2c1=O [Example 29] .
1 to 10 µM

* * *

System: E. coli ATCC 25922
Assay: In vitro antibacterial activity assay (MIC, broth dilution)
Assay type: cell-based
Conditions: Escherichia coli, ATCC25922; Table 3; read-out: E. coli ATCC 25922 MIC
Observable: MIC

Some entries whose results are on file:
- Compound: "COc1cc(-c2cc3c(cc2F)c(=O)c(C(=O)O)cn3C2CC2)ccc1NC(=O)C(C)(C)C [Example 65]"
  MIC: "≥ 1 µg/mL"
- Compound: "Nc1ccc(-c2c(F)cc3c(=O)c(C(=O)NO)cn(C4CC4)c3c2Cl)cc1[N+](=O)[O-] [Example 64]"
  MIC: "≥ 1 µg/mL"

// next entry
Please report the recorded MIC for CCCCCCCNS(=O)(=O)c1ccc(-c2cc3c(cc2F)c(=O)c(C(=O)O)cn3C2CC2)cc1C(F)(F)F [Example 132] .
≥ 1 µg/mL

* * *

Listing of recorded MIC by entry.
Test system: E. coli ATCC 25922
Test: In vitro antibacterial activity assay (MIC, broth dilution)
Assay type: cell-based
Details: Escherichia coli, ATCC25922; Table 2; 37°C, 16 hours; read-out: G- bacteria MIC E. coli ATCC 25922
Text: The method used to indicate the activity of the compounds in this example is to record the minimum inhibitory concentration (MIC) of the compounds against bacteria. The specific experimental method is as follows: • 1. […] Results reading: the minimum inhibitory concentration is the minimum drug concentration at which no bacterial growth is visible to the naked eye and without turbidity.

Some entries whose results are on file:
- Compound: "Nc1cc(-c2cc3c(cc2F)c(=O)c(C(=O)O)cn3C2CC2)ccn1"
  Target Of Assay: "E. coli ATCC 25922"
  Observable: "MIC"
  Result: "≤ 0.1 µg/mL"
- Compound: "O=C(O)c1cn(C2CC2)c2cc(-c3ccc(NC(=O)C(F)(F)F)c([N+](=O)[O-])c3)c(F)cc2c1=O"
  Target Of Assay: "E. coli ATCC 25922"
  Observable: "MIC"
  Result: "≤ 0.1 µg/mL"

// next entry
Lab note: need MIC with E. coli ATCC 25922 for entry COc1c(N2C[C@@H]3CCCN[C@@H]3C2)c(F)cc2c(=O)c(C(=O)O)cn(C3CC3)c12 [Moxifloxacin, reference compound] , please look it up.
≤ 0.1 µg/mL
